Test system: Staphylococcus aureus ATCC 29212
Test: MIC, broth microdilution
Type: cell-based
Conditions: concentration of 10 μg/ml
Property: Antibacterial activity in initial screening, S. aureus

Test Smiles	Result
NC(COc1ccc(Cl)cc1)COc1ccc(Cl)cc1	showed activity
Cl.NC(COc1ccc(Cl)c(Cl)c1)COc1ccc(Cl)c(Cl)c1	inhibited the growth
NC(COc1ccc2ccccc2c1)COc1ccc2ccccc2c1	showed activity
NC(COc1cccc2ccccc12)COc1cccc2ccccc12	inhibited the growth

---

Assay: Cytotoxicity, MTT reduction assay
Assay type: cell-based
Settings: African green monkey, BSC-40 cells; BSC‐40, MTT, 48 hr; read-out: CC50
Assign CC50 at 48 h to each entry below.

Query: What measured CC50 at 48 h goes with NC(COc1cccc2ccccc12)COc1cccc2ccccc12 ?
Result: 2.5 µg/mL

Query: Please answer likewise for NC(COc1ccc2ccccc2c1)COc1ccc2ccccc2c1
Result: 5.06 µg/mL

Query: Please answer likewise for NC(COc1ccc(Cl)cc1)COc1ccc(Cl)cc1
Result: 5.73 µg/mL

---

Assay: Cytotoxicity, MTT reduction assay
Format: cell-based
Settings: African green monkey, Vero cells, MTT, 48 hr, read-out: CC50 ± SD
Assign CC50 at 48 h to each entry below.
Entry rule: numbers only, all in µM.

Query: What measured CC50 at 48 h goes with NC(COc1ccc2ccccc2c1)COc1ccc2ccccc2c1 ?
Result: 11.3

Query: Please answer likewise for NC(COc1ccc(Cl)cc1)COc1ccc(Cl)cc1
Result: 17.2

Query: Please answer likewise for Cl.NC(COc1ccc(Cl)c(Cl)c1)COc1ccc(Cl)c(Cl)c1
Result: 13.1

Query: Please answer likewise for NC(COc1cccc2ccccc12)COc1cccc2ccccc12
Result: 9.98

---

Experiment: Cytotoxicity, MTT reduction assay
Format: cell-based
Details: African green monkey, BSC-40 cells; BSC‐40, MTT, 48 hr; read-out: CC50 ± SD
Assign CC50 at 48 h to each entry below.
Entry rule: numbers only, all in µM.

Query: What measured CC50 at 48 h goes with NC(COc1ccc2ccccc2c1)COc1ccc2ccccc2c1 [CPD21] ?
Result: 13.3

Query: Please answer likewise for NC(COc1ccc(Cl)cc1)COc1ccc(Cl)cc1 [CPD18]
Result: 16.4

Query: Please answer likewise for NC(COc1cccc2ccccc12)COc1cccc2ccccc12 [CPD20]
Result: 6.58

Query: Please answer likewise for Cl.NC(COc1ccc(Cl)c(Cl)c1)COc1ccc(Cl)c(Cl)c1 [CPD22]
Result: 10.6

---

System: MRSA Strain 5912
Assay: MIC, broth microdilution
Assay type: cell-based
Conditions: Staphylococcus aureus, clinical strain, read-out: MIC MRSA Strain 5912
Assign MIC to each entry below.
Entry rule: numbers only, all in µM.

Query: What measured MIC goes with NC(COc1ccc2ccccc2c1)COc1ccc2ccccc2c1 [CPD21] ?
Result: 13.2

Query: Please answer likewise for NC(COc1cccc2ccccc12)COc1cccc2ccccc12 [CPD20]
Result: 6.58

Query: Please answer likewise for Cl.NC(COc1ccc(Cl)c(Cl)c1)COc1ccc(Cl)c(Cl)c1 [CPD22]
Result: 5.99

Query: Please answer likewise for NC(COc1ccc(Cl)cc1)COc1ccc(Cl)cc1 [CPD18]
Result: 28.7

---

Assign melting point to each entry below.

Query: What measured melting point goes with CS(=O)(=O)OC(COc1ccc(Cl)c(Cl)c1)COc1ccc(Cl)c(Cl)c1 ?
Result: 83.7 to 84.4 °C

Query: Please answer likewise for [N-]=[N+]=NC(COc1ccc(Cl)c(Cl)c1)COc1ccc(Cl)c(Cl)c1
Result: 95.6 to 96.3 °C

Query: Please answer likewise for Cc1ccc(S(=O)(=O)OC(COc2ccc(Cl)cc2)COc2ccc(Cl)cc2)cc1
Result: 145.3 to 147.2 °C

Query: Please answer likewise for Clc1ccc(OCC(COc2ccc(Cl)cc2)N2CCOCC2)cc1
Result: 62.6 to 64.8 °C

Query: Please answer likewise for Cl.NC(COc1ccc(Cl)c(Cl)c1)COc1ccc(Cl)c(Cl)c1
Result: 224.1 to 225.6 °C

Query: Please answer likewise for OC(COc1ccc(Cl)c(Cl)c1)COc1ccc(Cl)c(Cl)c1
Result: 103.4 to 105.7 °C
